- EXPERIMENTAL_DETAILS: Half life in Balb/c mouse at 0.5 mg/kg,iv
- Assay type: ADME, organism-based
- ASSAY_CONDITIONS: in vivo
MEASURED_ATTRIBUTE: half-life (h)
Report the figure in h without appending any unit label.

The reported value for "CNC(=O)[C@]1(C)CC[C@@H](Nc2ncc3c(Br)nn(-c4ccc(-c5nnc(C)s5)cc4)c3n2)C1" in terms of half-life is 1.2

----------
- ASSAY_SYSTEM: eIF-2-alpha kinase GCN2 (Homo sapiens, UniProt Q9P2K8)
- Sequence (Q9P2K8 whole entry): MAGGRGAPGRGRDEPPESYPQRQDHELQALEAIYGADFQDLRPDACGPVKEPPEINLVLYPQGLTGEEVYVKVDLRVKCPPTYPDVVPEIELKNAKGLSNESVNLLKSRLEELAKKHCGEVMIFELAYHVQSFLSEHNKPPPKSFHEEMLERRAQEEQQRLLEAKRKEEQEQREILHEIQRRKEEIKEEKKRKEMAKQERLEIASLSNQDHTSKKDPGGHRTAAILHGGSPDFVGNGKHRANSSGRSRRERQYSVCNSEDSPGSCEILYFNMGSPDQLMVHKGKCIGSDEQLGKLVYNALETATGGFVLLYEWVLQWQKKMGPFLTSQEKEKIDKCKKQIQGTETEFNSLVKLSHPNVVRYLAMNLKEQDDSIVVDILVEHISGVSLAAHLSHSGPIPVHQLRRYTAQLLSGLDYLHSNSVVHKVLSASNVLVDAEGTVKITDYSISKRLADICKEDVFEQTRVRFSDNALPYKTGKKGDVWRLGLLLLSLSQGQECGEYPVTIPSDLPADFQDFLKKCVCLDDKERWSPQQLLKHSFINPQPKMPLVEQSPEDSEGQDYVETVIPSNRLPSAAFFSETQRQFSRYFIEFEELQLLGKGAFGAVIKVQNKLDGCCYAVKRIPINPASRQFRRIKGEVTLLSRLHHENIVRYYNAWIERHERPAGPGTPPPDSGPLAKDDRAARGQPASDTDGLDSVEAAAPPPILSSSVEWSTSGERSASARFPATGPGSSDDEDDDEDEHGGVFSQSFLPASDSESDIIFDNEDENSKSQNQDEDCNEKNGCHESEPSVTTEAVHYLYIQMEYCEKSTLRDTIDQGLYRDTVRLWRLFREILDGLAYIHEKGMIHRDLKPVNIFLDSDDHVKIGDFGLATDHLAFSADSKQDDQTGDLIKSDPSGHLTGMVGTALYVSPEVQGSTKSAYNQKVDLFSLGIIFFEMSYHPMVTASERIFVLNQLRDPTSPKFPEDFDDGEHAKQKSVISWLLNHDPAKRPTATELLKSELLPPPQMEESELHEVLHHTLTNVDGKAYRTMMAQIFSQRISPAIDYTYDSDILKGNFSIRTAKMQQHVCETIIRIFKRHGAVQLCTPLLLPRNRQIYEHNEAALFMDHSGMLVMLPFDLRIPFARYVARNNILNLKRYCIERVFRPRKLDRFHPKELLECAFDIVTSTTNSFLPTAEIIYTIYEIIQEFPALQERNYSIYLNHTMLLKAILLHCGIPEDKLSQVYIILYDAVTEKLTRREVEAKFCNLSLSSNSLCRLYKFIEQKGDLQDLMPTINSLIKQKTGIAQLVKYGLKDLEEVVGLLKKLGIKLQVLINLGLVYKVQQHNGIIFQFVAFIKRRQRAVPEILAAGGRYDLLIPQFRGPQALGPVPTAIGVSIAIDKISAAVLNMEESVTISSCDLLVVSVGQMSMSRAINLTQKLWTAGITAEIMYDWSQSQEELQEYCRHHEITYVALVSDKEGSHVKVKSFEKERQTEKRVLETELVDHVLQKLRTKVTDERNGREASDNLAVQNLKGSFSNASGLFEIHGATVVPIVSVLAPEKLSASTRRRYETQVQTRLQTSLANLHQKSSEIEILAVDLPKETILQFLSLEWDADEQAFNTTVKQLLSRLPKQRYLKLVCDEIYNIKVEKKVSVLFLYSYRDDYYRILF
- EXPERIMENTAL_DETAILS: Inhibition of GCN2 (unknown origin)
Define the label as True when IC50 is strictly less than 200 nM and as False in all remaining cases.

Field: example entries. Status: answers known.
For this compound, is IC50 lower than 200 nM? "CNC(=O)[C@]1(C)CC[C@@H](Nc2ncc3c(Br)nn(-c4ccc(-c5nnc(C)s5)c(CCS(C)(=O)=O)c4)c3n2)C1" True

Is 200 nM strictly greater than the compound's reported IC50? compound: "CNC(=O)[C@]1(C)CC[C@@H](Nc2ncc3c(Br)nn(-c4ccc(-c5nnc(C)o5)cc4)c3n2)C1" True

Does this compound meet the criterion IC50 < 200 nM? "CNC(=O)[C@]1(C)CC[C@@H](Nc2ncc3c(Br)nn(-c4ccc(-c5nnc(C)s5)c(CS(C)(=O)=O)c4)c3n2)C1" False

Report whether reported IC50 is lower than 200 nM (strictly) for "COCCNC(=O)[C@H]1CC[C@@H](Nc2ncc3c(Br)nn(-c4ccc5ncccc5c4)c3n2)CC1" False

Check if IC50 falls below 200 nM for "CCn1cc(Nc2ncc3ccn(-c4ccc(OC)cc4)c3n2)cn1" . False

Hi there! Is IC50 for "CCn1cc(Nc2ncc3c(C)nn(-c4ccc5ncccc5c4)c3n2)cn1" below 200 nM, do you know? True

Lab note: confirm whether the reported IC50 for this compound is below 200 nM, equality not counting. compound: "CCn1cc(Nc2ncc3cccc(-c4ccc(OC)cc4)c3n2)cn1" False

Below 200 nM on IC50? Entry "CNC(=O)[C@]1(C)CC[C@@H](Nc2ncc3c(Br)nn(-c4ccc(-c5nnc(C)s5)cc4)c3n2)C1" True

# strict comparison: is reported IC50 < 200 nM? input = "COCCC(=O)N[C@@H]1CC[C@@H](Nc2ncc3c(Br)nn(-c4ccc5ncccc5c4)c3n2)C1" True

I'd appreciate it if you could check whether "CNC(=O)[C@]1(C)CC[C@@H](Nc2ncc3c(Br)nn(-c4ccc(-c5nnc(C)s5)cc4F)c3n2)C1" has IC50 smaller than 200 nM. False

***
Identify whether the compound "CNC(=O)[C@]1(C)CC[C@@H](Nc2ncc3c(Br)nn(-c4ccc(-c5nnc(C)s5)c(CCN)c4)c3n2)C1" records IC50 below 200 nM. True

# credit: ChEMBL document CHEMBL5108048
